B1: VPS39 (parent)
chain: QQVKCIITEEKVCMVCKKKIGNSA

Variants of: B1
Method Summary: protein stability index of a GFP-peptide fusion (GPS, HEK-293T) (PSI 1-6); higher = more stable;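 also: lentivirally expressed fusions sorted by FACS into six bins by GFP to DsRed ratio, PSI derived from sequencing read proportions per bin multiplied by bin number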
Run Conditions: c terminus: a fixed tail appended
Exercise: for every item that follows, state its recorded protein stability index.

V12I : 3.06
Q1N : 2.91

Go through the items and report each one's protein stability index.
1. K17V
2. K17R
3. S23C
4. I20L

# output
1: 1.54; 2: 2.27; 3: 3.62; 4: 3.15

Go through the items and report each one's protein stability index.
1. K4M
2. V15N
3. C5G
4. K17M
5. E10A
6. G21Y

# output
[1.83, 3.08, 2.82, 2.29, 1.9, 2.3]

// data source = the supplement of paper PMC10567573
